Reference source for all entries: ChEMBL document CHEMBL1131222

Assay procedure: Alkaline hydrolysis rate (logk-OH)
Type: ADME
Conditions: 50 mM CAPS, pH 10.5 or 11.5, 25 °C
Mark each entry 1 if its Log kOH- sits below -0.2, and -1 for all others.

Use these answered entries as a reference point.
* Cc1sc2nc(N3CCOCC3)oc(=O)c2c1C | 1
* CC(C)COc1nc2sc3c(c2c(=O)o1)CCCC3 | -1
* CSc1nc2sc(C)c(C)c2c(=O)o1 | -1
* CC(C)Nc1nc2sc3c(c2c(=O)o1)CCCC3 | 1
* COC(=O)CSc1nc2sc(C)c(C)c2c(=O)o1 | -1

Attention now turns to another entry.
Query string: Determine if `CCCOc1nc2sc3c(c2c(=O)o1)CCCC3` shows Log kOH- strictly lower than -0.2.
Result string: -1
